System: Tel-cKit/T670I-BaF3
protocolText: Proliferation of Tel-cKit/T670I-BaF3 cells, CCK8 cell viability assay
Format: cell-based
conditionParameters: Mus musculus, 72 hours, stably expressing cKIT/T670I
measuredProperty: GI50 (µM)

Examples with their reported GI50 follow.
Fill in GI50 for record CC(C)C(=O)Nc1cc(Oc2ccc(NC(=O)Cc3cccc(C(F)(F)F)c3)cc2)ncn1 [Example 50] 9.22

Using the record for CC[C@@H]1CN(C(=O)OC(C)(C)C)CCN1c1cc(Oc2ccc(NC(=O)Nc3ccc(C)c(C(F)(F)F)c3)cc2)ncn1 [Example 111] , state its measured GI50. 8.6

P: CN1CCN(Cc2ccc(NC(=O)Nc3ccc(Oc4cc(NCCN)ncn4)cc3)cc2C(F)(F)F)CC1 [Example 108]
Q: CC(=O)Nc1cc(Oc2ccc(CC(=O)Nc3ccccc3)cc2)ncn1 [Example 37]
Compare P and Q by numeric GI50 and name the larger one. Please indicate the selected item by its label. P
(P: 7.82 µM, Q: 4.03 µM)

P: COc1cc(CC(=O)Nc2ccc(Oc3cc(NC(C)=O)ncn3)cc2)cc(OC)c1OC [Example 62]
Q: Cc1ccc(NC(=O)N[C@H]2CC[C@H](Oc3cc(NCCO)ncn3)CC2)cc1C(F)(F)F [Example 42]
I'm curious whether P or Q has the smaller GI50 number. Which is it? Answer by quoting the chosen item's label. Q

A: Cc1ccc(NC(=O)Nc2ccc(Oc3cc(N4CCN(C(=O)CC(C)(C)C)C[C@H]4C)ncn3)cc2)cc1C(F)(F)F [Example 115]
B: Cc1ccc(NC(=O)N[C@H]2CC[C@H](Oc3cc(NCCN)ncn3)CC2)cc1C(F)(F)F [Example 46]
C: Cc1ccc(NC(=O)Cc2ccc(Oc3cc(NCCN)ncn3)cc2)cc1C(F)(F)F [Example 137]
D: CC(=O)Nc1cc(Oc2ccc(NC(=O)Cc3ccc(C(F)(F)F)cc3C(F)(F)F)cc2)ncn1 [Example 3]
Hey, can you sort those compounds up there by GI50, smallest first? Answer format: list of labels, ordered as asked. C, B, A, D
(C: 0.323 µM, B: 0.765 µM, A: 4.25 µM, D: 8.9 µM)

###

Reported GI50 by item:
Tested on: Tel-cKit/T670I-BaF3
protocolText: Proliferation of Tel-cKit/T670I-BaF3 cells, CCK8 cell viability assay
Format: cell-based
conditionParameters: Mus musculus, 72 hours, stably expressing cKIT/T670I
Protocol: […] GI50 (unit: μM) was calculated by quantifying the number of living cells based on quantitative measurement of reductive dehydrogenase in living cells with CCK8 cell viability assay kit (Bestbio, China).

Known results for compounds:
Identify measured GI50 obtained with Tel-cKit/T670I-BaF3 for "CC(=O)Nc1cc(Oc2ccc(NC(=O)Cc3ccc(Cl)cc3Cl)cc2)ncn1" . > 10 µM

// output GI50; input "COCCNc1cc(Oc2ccc(NC(=O)Nc3ccc(CN4CCN(C)CC4)cc3)cc2)ncn1" ; system Tel-cKit/T670I-BaF3 > 10 µM

Report measured GI50 on Tel-cKit/T670I-BaF3; entry: "CC(=O)Nc1cc(Oc2ccc(NC(=O)Cc3ccc(F)cc3F)cc2)ncn1" > 10 µM

Retrieve GI50 on Tel-cKit/T670I-BaF3; query CNC(=O)c1cc(Oc2ccc(NC(=O)Nc3ccc(Cl)c(C(F)(F)F)c3)cc2)ccn1 [Sorafenib, reference compound] 0.112 µM

Give the observed GI50 of "CC(=O)Nc1cc(Oc2ccc(NC(=O)Cc3cccc(Oc4ccccc4)c3)cc2)ncn1" for Tel-cKit/T670I-BaF3. 8.64 µM

Next:
Specify the recorded GI50 for "CC(=O)Nc1cc(Oc2ccc(NC(=O)Cc3cccc([N+](=O)[O-])c3C)cc2)ncn1" , system: Tel-cKit/T670I-BaF3. 5.63 µM

Look up and report GI50, with Tel-cKit/T670I-BaF3 as system, for "CC(=O)Nc1cc(Oc2ccc(NC(=O)Cc3cccc(Cl)c3)cc2)ncn1" > 10 µM

Report GI50 under test system Tel-cKit/T670I-BaF3 for "CC(=O)Nc1cc(Oc2ccc(NC(=O)Cc3ccccc3F)cc2)ncn1" . > 10 µM

Entry source: patent US11602534B2
